Where do these numbers come from? They come from patent US20240425464A1.

# Test system: C. albicans ATCC MYA-1003 (G)
# assay_text: MIC determination by in vitro antifungal assay
# Assay type: cell-based, Candida albicans
# condition_summary: strain G = C. albicans ATCC MYA-1063(R) (footnote); MYA-1003 in text
property: log10 MIC (log10 of the value in μg/mL^−1)
Remember, log10 of MIC, in μg/mL^−1.

Recorded results for 4 compounds are shown here.
INSERT INTO measurements (compound, system, property, readout_number) VALUES
  ('COc1cccc(NNC(=O)c2ccccn2)c1 [Compound 2c]', 'C. albicans ATCC MYA-1003 (G)', 'log10 MIC', -0.01),
  ('O=C(NNc1cccc(F)c1)c1cccc(F)n1 [Compound 5a]', 'C. albicans ATCC MYA-1003 (G)', 'log10 MIC', 0.29),
  ('O=C(NNc1ccc(Cl)cc1)c1ccc(F)cc1F [Compound 1e]', 'C. albicans ATCC MYA-1003 (G)', 'log10 MIC', 0.89),
  ('O=C(NNc1cccc(F)c1)c1cccc(Br)n1 [Compound 6a]', 'C. albicans ATCC MYA-1003 (G)', 'log10 MIC', 0.59);

Item O=C(NNc1cccc(F)c1)c1cnccn1 [Compound 9a] has what recorded log10 MIC?
-0.01

Item O=C(NNc1cccc(F)c1)c1ccccn1 [Compound 2a] has what recorded log10 MIC?
-0.01

Item O=C(NNc1ccc(Cl)cc1)c1ccccn1 [Compound 2e] has what recorded log10 MIC?
-0.01

Item O=C(NNc1ccc(Cl)cc1)c1cccc(F)n1 [Compound 5e] has what recorded log10 MIC?
-0.01

Item O=C(NNc1cccc(Cl)c1)c1ccccn1 [Compound 2b] has what recorded log10 MIC?
-0.31

Item O=C(NNc1cccc(F)c1)c1ncc(F)cc1F [Compound 7a] has what recorded log10 MIC?
0.29

----------
In this section we review reported MIC values for a set of compounds.
# Tested on: C. auris AR Bank #382
# assay_text: MIC determination by in vitro antifungal assay
# Format: cell-based, Candida auris
# condition_summary: Candidozyma auris; C. auris AR Bank # 382 (Table 2B); read-out: MIC
# do not omit the unit; it follows the number

INSERT INTO measurements (smiles_representation, system, property, result) VALUES
  ('COc1ccc(NNC(=O)c2ncc(F)cc2F)cc1', 'C. auris AR Bank #382', 'MIC', '0.98 µg/mL'),
  ('O=C(NNc1ccc(F)cc1F)c1ccc(F)cn1', 'C. auris AR Bank #382', 'MIC', '1.95 µg/mL'),
  ('O=C(NNc1ccc(F)cc1F)c1nc(F)ccc1F', 'C. auris AR Bank #382', 'MIC', '1.95 µg/mL'),
  ('O=C(NNc1ccc(F)cc1)c1ccc(Br)cn1', 'C. auris AR Bank #382', 'MIC', '1.95 µg/mL'),
  ('O=C(NNc1ccc(F)cc1)c1nc(F)ccc1F', 'C. auris AR Bank #382', 'MIC', '0.98 µg/mL');

Form field - read-out: MIC; system: C. auris AR Bank #382; submitted item: O=C(NNc1ccc(F)cc1F)c1cccc(F)n1
0.98 µg/mL

Form field - read-out: MIC; system: C. auris AR Bank #382; submitted item: COc1cccc(NNC(=O)c2cccc(F)n2)c1
0.49 µg/mL

Form field - read-out: MIC; system: C. auris AR Bank #382; submitted item: COc1ccc(NNC(=O)c2nc(F)ccc2F)cc1
0.98 µg/mL

Form field - read-out: MIC; system: C. auris AR Bank #382; submitted item: O=C(NNc1cc(Cl)cc(Cl)c1)c1ccc(F)cc1F
15.6 µg/mL

Form field - read-out: MIC; system: C. auris AR Bank #382; submitted item: O=C(NNc1cccc(Cl)c1)c1ccc(F)cc1F
3.9 µg/mL

Form field - read-out: MIC; system: C. auris AR Bank #382; submitted item: O=C(NNc1ccc(F)cc1)c1ncc(F)cc1F
0.98 µg/mL

----------
# Tested on: C. auris AR Bank #381
# assay_text: MIC determination by in vitro antifungal assay
# Type: cell-based, Candida auris
# condition_summary: Candidozyma auris; C. auris AR Bank # 381 (Table 2B); read-out: MIC
property: MIC

Item O=C(NNc1ccc(F)cc1)c1nc(F)ccc1F [Compound 8d] has what recorded MIC?
0.98 µg/mL

Item COc1ccc(NNC(=O)c2nc(F)ccc2F)cc1 [Compound 8f] has what recorded MIC?
0.98 µg/mL

----------
# Tested on: A. fumigatus NRRL 5109 (R)
# assay_text: MIC determination by in vitro antifungal assay
# Format: cell-based, Aspergillus fumigatus
# condition_summary: Aspergillus fumigatus, NRRL5109; strain R = A. fumigatus NRRL 5109; read-out: MIC
In this section we review reported MIC values for a set of compounds.

Recorded results for 2 compounds are shown here.
INSERT INTO measurements (smiles_representation, result) VALUES
  ('O=C(NNc1ccc(F)cc1F)c1cnccn1', '> 31.3 µg/mL'),
  ('O=C(NNc1cc(Cl)cc(Cl)c1)c1ccccn1', '> 31.3 µg/mL');

Next up:
Item COc1ccc(NNC(=O)c2cnccn2)cc1 has what recorded MIC?
31.3 µg/mL

----------
# Tested on: A. fumigatus NRRL 5109 (R)
# assay_text: MIC determination by in vitro antifungal assay
# Assay type: cell-based, Aspergillus fumigatus
# condition_summary: Aspergillus fumigatus, NRRL5109; strain R = A. fumigatus NRRL 5109; read-out: MIC
property: MIC (µg/mL)
Your answer is read as µg/mL, so omit the unit and give the number.

INSERT INTO results (smiles_representation, system, property, measurement_units, readout_number) VALUES
  ('O=C(NNc1cc(F)ccc1F)c1ccccn1', 'A. fumigatus NRRL 5109 (R)', 'MIC', 'µg/mL', 15.6),
  ('COc1cccc(NNC(=O)c2cnccn2)c1', 'A. fumigatus NRRL 5109 (R)', 'MIC', 'µg/mL', 7.8);

Item O=C(NNc1ccc(F)cc1)c1ccccn1 has what recorded MIC?
7.8

Item O=C(NNc1ccc(F)cc1F)c1ccccn1 has what recorded MIC?
15.6

Item COc1cccc(NNC(=O)c2ccc(Br)cn2)c1 has what recorded MIC?
7.8

Item O=C(NNc1ccc(F)cc1)c1nc(F)ccc1F has what recorded MIC?
15.6

----------
# Tested on: A. fumigatus NRRL 5109 (R)
# assay_text: MIC determination by in vitro antifungal assay
# Format: cell-based, Aspergillus fumigatus
# condition_summary: strain R = A. fumigatus NRRL 5109
In this section we review reported MIC values for a set of compounds.

Recorded results for 4 compounds are shown here.
INSERT INTO results (compound, result) VALUES
  ('O=C(NNc1cccc(F)c1)c1cnccn1 [Compound 9a]', '>31.3 μg/mL^−1'),
  ('COc1cccc(NNC(=O)c2ccccn2)c1 [Compound 2c]', '3.9 μg/mL^−1'),
  ('O=C(NNc1cccc(F)c1)c1ccc(F)cc1F [Compound 1a]', '>31.3 μg/mL^−1'),
  ('O=C(NNc1cccc(Cl)c1)c1ccccn1 [Compound 2b]', '>31.3 μg/mL^−1');

Next up:
Item O=C(NNc1cccc(F)c1)c1ccc(Br)cn1 [Compound 4a] has what recorded MIC?
>31.3 μg/mL^−1

----------
# Tested on: Aspergillus flavus ATCC MYA-3631 (O)
# assay_text: MIC determination by in vitro antifungal assay
# Assay type: cell-based
# condition_summary: Aspergillus flavus; strain O = A. flavus ATCC MYA-3631; read-out: MIC
In this section we review reported MIC values for a set of molecules.

INSERT INTO results (molecule, result) VALUES
  ('COc1ccc(NNC(=O)c2nc(F)ccc2F)cc1 [Compound 8f]', '> 31.3 µg/mL'),
  ('COc1ccc(NNC(=O)c2ccc(Br)cn2)cc1 [Compound 4f]', '> 31.3 µg/mL'),
  ('COc1cccc(NNC(=O)c2ncc(F)cc2F)c1 [Compound 7c]', '> 31.3 µg/mL'),
  ('O=C(NNc1cc(F)ccc1F)c1cnccn1 [Compound 9h]', '> 31.3 µg/mL'),
  ('O=C(NNc1ccc(F)cc1F)c1ccccn1 [Compound 2g]', '15.6 µg/mL');

Item COc1cccc(NNC(=O)c2cnccn2)c1 [Compound 9c] has what recorded MIC?
> 31.3 µg/mL

Item O=C(NNc1ccc(F)cc1)c1nc(F)ccc1F [Compound 8d] has what recorded MIC?
7.8 µg/mL

Item COc1cccc(NNC(=O)c2ccc(F)cc2F)c1 [Compound 1c] has what recorded MIC?
> 31.3 µg/mL

----------
# Test system: C. albicans ATCC 10231 (strain A) biofilm formation
# assay_text: Prevention of biofilm formation assay
# Format: cell-based, Candida albicans
# Description: Biofilm prevention assays were set up identically to the ordinary MIC experiment, where compounds were diluted, and the fungi added. After overnight growth, the plates were washed as in the biofilm disruption assay and stained and measured in the same fashion. A large amount of fungal cells were exposed to the monohydrazides at time 0 h to evaluate the effect of these compounds in the prevention of Candida biofilm formation (FIG. 5B). […]
In this section we review reported concentration active in prevention of biofilm formation values for a set of compounds.
Your answer is read as j·tg mL^−1, so omit the unit and give the number.

INSERT INTO assay_data (smiles_representation, system, readout_number) VALUES
  ('COc1cccc(NNC(=O)c2ccccn2)c1', 'C. albicans ATCC 10231 (strain A) biofilm formation', 1.96);

Form field - read-out: concentration active in prevention of biofilm formation; system: C. albicans ATCC 10231 (strain A) biofilm formation; submitted item: O=C(NNc1ccc(F)cc1)c1ccccn1
1.96

Form field - read-out: concentration active in prevention of biofilm formation; system: C. albicans ATCC 10231 (strain A) biofilm formation; submitted item: O=C(NNc1cccc(F)c1)c1ccccn1
7.8

Form field - read-out: concentration active in prevention of biofilm formation; system: C. albicans ATCC 10231 (strain A) biofilm formation; submitted item: COc1ccc(NNC(=O)c2ccccn2)cc1
7.8
